experiment: Cyclic voltammetry measurements (oxidation-reduction potentials); format: physicochemical; conditions: acetonitrile, 0.1 M TBABF4, glassy carbon working electrode, 25° C., normalised to Fc/Fc^+

COMPOUND	E°′ ACN (V vs Fc/Fc^+)
CCOC(=O)CCCOc1cccc(OCCCC(=O)OCC)c1-c1ccc(-c2c(OCCCC(=O)OCC)cccc2OCCCC(=O)OCC)c2nsnc12	−2.00 V vs Fc/Fc^+
COCCOCCOc1ccccc1-c1ccc(-c2ccccc2OCCOCCOC)c2nsnc12	−1.90 V vs Fc/Fc^+
CCOC(=O)CCCOc1ccccc1-c1ccc(-c2ccccc2OCCCC(=O)OCC)c2nsnc12	−1.91 V vs Fc/Fc^+
CCOC(=O)CCCOc1ccc(OCCCC(=O)OCC)c(-c2ccc(-c3cc(OCCCC(=O)OCC)ccc3OCCCC(=O)OCC)c3nsnc23)c1	−1.88 V vs Fc/Fc^+
O=S(=O)([O-])C(F)(F)F.O=S(=O)([O-])C(F)(F)F.[Cu+2] [Cu triflate, copper(II) trifluoromethanesulphonate, reference compound]	0.62 V vs Fc/Fc^+
CCOC(=O)CCCOc1ccc(-c2ccc(-c3ccc(OCCCC(=O)OCC)cc3OCCCC(=O)OCC)c3nsnc23)c(OCCCC(=O)OCC)c1	−1.93 V vs Fc/Fc^+
CCOC(=O)COc1ccccc1-c1ccc(-c2ccccc2OCC(=O)OCC)c2nsnc12	−1.86 V vs Fc/Fc^+
